System: Leukemia L1210
Experiment Notes: Activity against Leukemia L1210, intraperitoneal, increase in life span of mice
Format: in vivo, female mice (BDF1 family)
Recorded Conditions: ip; O.D./ILS30
API: label(entry) gives true if the entry's Therapeutic ratio TR is strictly smaller than 50; on equality or larger values it gives false.

Compound | Assayed System | Label Class
CC(C)CCO[C@H]1O[C@H](CN(CC(C)C)C(=O)N(CCCl)N=O)[C@@H](O)[C@H](O)[C@H]1O | Leukemia L1210 | true
CCCCO[C@H]1O[C@H](CN(CCCOC)C(=O)N(CCCl)N=O)[C@@H](O)[C@H](O)[C@H]1O | Leukemia L1210 | true
CC(C)CO[C@H]1O[C@H](CN(Cc2cccs2)C(=O)N(CCCl)N=O)[C@H](O)[C@H](O)[C@H]1O | Leukemia L1210 | true
CCC(C)N(C[C@H]1O[C@H](OCCOCOC)[C@H](O)[C@@H](O)[C@H]1O)C(=O)N(CCCl)N=O (stereo partly shown) | Leukemia L1210 | false
COCC(C)N(C[C@H]1O[C@H](OCC(C)C)[C@H](O)[C@@H](O)[C@@H]1O)C(=O)N(CCCl)N=O (stereo partly shown) | Leukemia L1210 | false

For `CCCCCCCCCCN(C[C@H]1O[C@H](OCCCC)[C@H](O)[C@@H](O)[C@@H]1O)C(=O)N(CCCl)N=O` , is the recorded Therapeutic ratio TR below the cut-off of 50?
true

====

Experiment Notes: Acute toxicity (LD50, Behrens-Karber method)
Format: in vivo, ICR mice
Recorded Conditions: mouse, in vivo, ip, mortality during 30 days
Description: Test compounds, dissolved or suspended in 0.5% aqueous CMC, were each intraperitoneally administered to ICR mice in a dose of 0.1 ml per 10 g body weight. LD50 (mg/kg) value of each test compound was calculated from the mortality of mice during 30 days by the Behrens-Karber method.
Endpoint Label: LD50 at 720 h (mg/kg)
Only the number, expressed in mg/kg, is required.

LD50 at 720 h for `CCCCO[C@H]1O[C@H](CO)[C@H](O)[C@H](O)[C@H]1N(CCC)C(=O)N(CCCl)N=O` ?
600

====

Tested on: Leukemia L1210
Experiment Notes: Activity against Leukemia L1210, intraperitoneal, increase in life span of mice
Format: in vivo, female mice (BDF1 family)
Recorded Conditions: Mus musculus, L1210, ip, ip once a day for 5 successive days; daily dosage giving maximum increase of life span; read-out: O.D. (optimum dosage)
Description: Tests were conducted in accordance with the method for measuring antitumor activity of National Cancer Center Tokyo (A, Hoshi et al, Farumashia 9 464 (1973)). […] An increase percentage of life span (ILS%) was calculated from said average survival days compared with those of the control group. […]
Endpoint Label: ED (maximum ILS) (mg/kg)
State the answer as a number, implicitly in mg/kg.

Solved cases below.
Compound | ED (maximum ILS) (mg/kg)
CCCN(C(=O)N(CCCl)N=O)[C@@H]1[C@@H](O)[C@@H](OC2CCCCC2)OC[C@H]1O [Compound 147] | 150
COCCCOC1OC(CO)C(O)C(O)C1N(CC(C)C)C(=O)N(CCCl)N=O (stereo not drawn) [Compound 68] | 170
CCC(C)N(C(=O)N(CCCl)N=O)[C@H]1[C@H](O)[C@H](O)[C@@H](OCc2ccccc2)O[C@@H]1CO (stereo partly drawn) [Compound 138] | 120
CC(C)CO[C@@H]1O[C@H](CO)[C@@H](O)[C@H](O)[C@H]1N(C(=O)N(CCCl)N=O)C(C)(C)C [Compound 176] | 180
COCCN(C(=O)N(CCCl)N=O)[C@H]1[C@H](OC2CCCCC2)OC[C@H](O)[C@@H]1O [Compound 155] | 160
CC(C)(C)N(C[C@H]1O[C@H](OC(c2ccccc2)C2CC2)[C@H](O)[C@@H](O)[C@@H]1O)C(=O)N(CCCl)N=O (stereo partly drawn) [Compound 201] | 150

Which ED (maximum ILS) is reported for this compound? CC(C)CO[C@H]1O[C@H](CO)[C@@H](O)[C@H](O)[C@H]1N(Cc1ccccc1)C(=O)N(CCCl)N=O [Compound 62]
200

Param item = CC(C)CO[C@H]1O[C@H](CN(Cc2ccco2)C(=O)N(CCCl)N=O)[C@@H](O)[C@H](O)[C@H]1O [Compound 24] ; retrieve measured ED (maximum ILS).
180

Item under review: O=NN(CCCl)C(=O)N[C@@H]1O[C@H](CO)[C@@H](O)[C@H](O)[C@H]1O [GANU, reference compound] . Reported ED (maximum ILS)?
6.2

For the compound CC=CCO[C@H]1O[C@H](CN(CC(C)C)C(=O)N(CCCl)N=O)[C@@H](O)[C@H](O)[C@H]1O [Compound 29] , what ED (maximum ILS) is on record?
140

# input compound: CC(C)CO[C@@H]1O[C@H](CN(C(=O)N(CCCl)N=O)C(C)(C)C)[C@@H](O)[C@H](O)[C@H]1O [Compound 175] ; wanted: its ED (maximum ILS)
170

Entry CC(C)CCN(C(=O)N(CCCl)N=O)[C@H]1[C@@H](O)[C@@H](CO)O[C@H](OCC(C)C)[C@@H]1O [Compound 127] : reported ED (maximum ILS) = ?
200

Bench note: what ED (maximum ILS) did CCC(C)O[C@@H]1OC[C@H](O)[C@H](O)[C@H]1N(CCCOC)C(=O)N(CCCl)N=O (stereo partly drawn) [Compound 158] show?
170

Which ED (maximum ILS) is listed for COCCCN(C(=O)N(CCCl)N=O)C1C(OCC(C)C)OC(CO)C(O)C1O (stereo not drawn) [Compound 74] ?
170

Suppose we examine the compound CC(C)COC1OC(CO)C(N(CC2CC2)C(=O)N(CCCl)N=O)C(O)C1O (stereo not drawn) [Compound 95] ; what ED (maximum ILS) value has been reported?
120

Values were extracted from patent US4593090A.
